The origin of these recorded values is patent US11008403.

Target: human TfR ECD (human)
Sequence (chain, as listed by the source): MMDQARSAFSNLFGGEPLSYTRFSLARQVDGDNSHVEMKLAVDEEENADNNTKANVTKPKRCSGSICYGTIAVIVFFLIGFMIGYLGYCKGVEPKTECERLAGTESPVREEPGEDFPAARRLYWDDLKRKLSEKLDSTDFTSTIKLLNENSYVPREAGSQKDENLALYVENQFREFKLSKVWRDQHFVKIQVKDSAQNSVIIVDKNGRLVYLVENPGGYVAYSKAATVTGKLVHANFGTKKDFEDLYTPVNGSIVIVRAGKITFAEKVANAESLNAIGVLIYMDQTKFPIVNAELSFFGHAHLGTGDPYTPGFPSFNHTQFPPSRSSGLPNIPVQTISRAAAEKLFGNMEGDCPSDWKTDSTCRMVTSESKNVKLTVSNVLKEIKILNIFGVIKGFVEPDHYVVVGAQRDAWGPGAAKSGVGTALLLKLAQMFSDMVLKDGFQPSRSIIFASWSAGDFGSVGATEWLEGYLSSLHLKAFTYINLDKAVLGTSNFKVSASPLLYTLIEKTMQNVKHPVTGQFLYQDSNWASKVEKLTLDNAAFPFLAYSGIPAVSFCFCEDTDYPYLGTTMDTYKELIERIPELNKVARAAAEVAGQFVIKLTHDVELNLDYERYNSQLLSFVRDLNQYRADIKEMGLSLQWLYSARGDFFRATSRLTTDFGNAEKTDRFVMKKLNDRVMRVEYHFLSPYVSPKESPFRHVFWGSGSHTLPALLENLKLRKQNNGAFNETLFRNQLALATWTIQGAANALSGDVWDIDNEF
Assay: ELISA
observation_type: EC50 (ng/mL)
Use ng/mL as the unit, but write only the number.

Illustrative cases are given below, each with its answer.
• hu15G11.v5 LC T52A (antibody, V domains shown) VH: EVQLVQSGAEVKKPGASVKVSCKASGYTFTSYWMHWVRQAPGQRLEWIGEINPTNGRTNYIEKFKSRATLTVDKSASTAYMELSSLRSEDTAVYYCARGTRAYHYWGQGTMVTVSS VL: DIQMTQSPSSLSASVGDRVTITCRASDNLYSNLAWYQQKPGKSPKLLVYDAANLADGVPSRFSGSGSGTDYTLTISSLQPEDFATYYCQHFWGTPLTFGQGTKVEIK = 0.2
• hu15G11.v5 LC N28A (antibody, V domains shown) VH: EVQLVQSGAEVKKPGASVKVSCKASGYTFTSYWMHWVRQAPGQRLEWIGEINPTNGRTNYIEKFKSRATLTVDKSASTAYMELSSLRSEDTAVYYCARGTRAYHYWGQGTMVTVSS VL: DIQMTQSPSSLSASVGDRVTITCRASDALYSNLAWYQQKPGKSPKLLVYDATNLADGVPSRFSGSGSGTDYTLTISSLQPEDFATYYCQHFWGTPLTFGQGTKVEIK = 0.2

Let's switch to this binder now.
Given hu15G11.v5 LC N32A (antibody, V domains shown) VH: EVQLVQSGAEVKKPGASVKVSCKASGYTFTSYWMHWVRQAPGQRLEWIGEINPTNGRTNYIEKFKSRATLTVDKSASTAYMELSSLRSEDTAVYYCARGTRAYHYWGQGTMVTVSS VL: DIQMTQSPSSLSASVGDRVTITCRASDNLYSALAWYQQKPGKSPKLLVYDATNLADGVPSRFSGSGSGTDYTLTISSLQPEDFATYYCQHFWGTPLTFGQGTKVEIK , state its recorded EC50.
1.6
